Every entry's value here was drawn from the Immune Epitope Database (IEDB).

Target: HLA-A*03:01
Experiment: IEDB peptide-MHC binding, purified MHC/direct/fluorescence; filed as Kd, often an IC50 or EC50 that approximates it; bounds were set here for any values at or beyond the usual limits of such assays
Conditions: source organism: Reston ebolavirus - Reston
pKd: −log10 of the molar value.
Kindly state pKd for each of the entries shown.

Return value of pKd for input FHRKKTDAL , no commentary. ≤ 4.70

Return value of pKd for input KHDFIDNPL , no commentary. ≤ 4.70

---

Target: HLA-A*33:01
Assay: IEDB peptide-MHC binding, purified MHC/competitive/radioactivity; filed as Kd, often an IC50 or EC50 that approximates it; bounds were set here for any values at or beyond the usual limits of such assays
Conditions: source organism: Mammarenavirus lassaense
PARAMETER: Kd

Return value of Kd for input LSCTKNTSHH , no commentary. ≥ 70 µM

---

Target: HLA-A*02:01
Test: IEDB peptide-MHC binding, purified MHC/competitive/fluorescence; bounds were set here for any values at or beyond the usual limits of such assays
Details: source organism: Vaccinia virus
PARAMETER: IC50 (µM)
Give the number; µM is assumed, so skip it.

Return value of IC50 for input GCLRIQSLM , no commentary. 9.58

---

Molecular target: HLA-A*11:01
Test: IEDB peptide-MHC binding, purified MHC/competitive/fluorescence; filed as Kd, often an IC50 or EC50 that approximates it; bounds were set here for any values at or beyond the usual limits of such assays
Conditions: source organism: Vaccinia virus Copenhagen
PARAMETER: Kd

Return value of Kd for input MTRVTNNVY , no commentary. ≥ 20 µM

---

Kindly state pKd for each of the entries shown.
Biological target: HLA-B*44:03
Assay: IEDB peptide-MHC binding, purified MHC/competitive/radioactivity; filed as Kd, often an IC50 or EC50 that approximates it; bounds were set here for any values at or beyond the usual limits of such assays
Conditions: source organism: Mammarenavirus brazilense
pKd: −log10 of the molar value.

Return value of pKd for input PDFNELFQL , no commentary. ≤ 4.64

Return value of pKd for input EDQGNPIVL , no commentary. ≤ 4.11

---

Molecular target: HLA-B*48:01
Assay: IEDB peptide-MHC binding, purified MHC/direct/fluorescence; filed as Kd, often an IC50 or EC50 that approximates it; bounds were set here for any values at or beyond the usual limits of such assays
Conditions: source organism: Lake Victoria marburgvirus - Popp
PARAMETER: Kd

Return value of Kd for input KNYPASLHK , no commentary. ≥ 20 µM

---

Biological target: HLA-B*27:03
Assay: IEDB peptide-MHC binding, purified MHC/competitive/fluorescence; filed as Kd, often an IC50 or EC50 that approximates it; bounds were set here for any values at or beyond the usual limits of such assays
Settings: source organism: Entamoeba histolytica HM-1:IMSS
pKd: −log10 of the molar value.
PARAMETER: pKd

Return value of pKd for input NPAACSYMV , no commentary. ≤ 4.70

---

Molecular target: HLA-A*30:01
Assay: IEDB peptide-MHC binding, purified MHC/competitive/radioactivity; filed as Kd, often an IC50 or EC50 that approximates it; bounds were set here for any values at or beyond the usual limits of such assays
Settings: source organism: Dengue virus 4 Philippines/H241/1956
PARAMETER: Kd (nM)
Give the number; nM is assumed, so skip it.

Report measured Kd on HLA-A*30:01; entry: KTKTDFGFY 2.89

---

Target: HLA-B*15:01
Test: IEDB peptide-MHC binding, purified MHC/direct/fluorescence; filed as Kd, often an IC50 or EC50 that approximates it; bounds were set here for any values at or beyond the usual limits of such assays
Settings: source organism: Vibrio cholerae V52
PARAMETER: Kd

Return value of Kd for input LPYPVLLKI , no commentary. ≥ 20 µM

---

Biological target: HLA-A*24:02
Experiment: IEDB peptide-MHC binding, purified MHC/competitive/radioactivity; filed as Kd, often an IC50 or EC50 that approximates it; bounds were set here for any values at or beyond the usual limits of such assays
Details: source organism: Dengue virus 4 Dominica/814669/1981
PARAMETER: Kd (µM)
Give the number; µM is assumed, so skip it.

Return value of Kd for input MFGGVSWMI , no commentary. 0.0783

---

Target: HLA-C*08:02
Test: IEDB peptide-MHC binding, purified MHC/direct/fluorescence; filed as Kd, often an IC50 or EC50 that approximates it; bounds were set here for any values at or beyond the usual limits of such assays
Details: source organism: Vaccinia virus WR
PARAMETER: pKd
Lab note — pKd values are minus log10 of concentrations in M.

Return value of pKd for input FTSSFYNYV , no commentary. 6.09

---

Molecular target: HLA-A*02:03
Assay: IEDB peptide-MHC binding, purified MHC/competitive/radioactivity; filed as Kd, often an IC50 or EC50 that approximates it; bounds were set here for any values at or beyond the usual limits of such assays
Details: source organism: Dengue virus 4 Dominica/814669/1981
Kindly state Kd for each of the entries shown.
Remember to quote the unit after the number.

Return value of Kd for input ILNAHKDGV , no commentary. 329 nM

Return value of Kd for input AMHSALAGA , no commentary. 8.58 nM

---

Kindly state Kd for each of the entries shown.
Target: HLA-B*57:01
Experiment: IEDB peptide-MHC binding, purified MHC/competitive/radioactivity; filed as Kd, often an IC50 or EC50 that approximates it; bounds were set here for any values at or beyond the usual limits of such assays
Conditions: source organism: Dengue virus 2 Jamaica/1409/1983
Give the number; nM is assumed, so skip it.

Report measured Kd on HLA-B*57:01; entry: KAINVLRGF 3.43

Report measured Kd on HLA-B*57:01; entry: LTSSQQKADW 100

Report measured Kd on HLA-B*57:01; entry: KTWAYHGSY 4.57

Report measured Kd on HLA-B*57:01; entry: AVSMANIFRG 37.2

Report measured Kd on HLA-B*57:01; entry: ASSLLKNDIP 8580

---

Biological target: HLA-C*06:02
Assay: IEDB peptide-MHC binding, purified MHC/direct/fluorescence; filed as Kd, often an IC50 or EC50 that approximates it; bounds were set here for any values at or beyond the usual limits of such assays
Conditions: source organism: Vaccinia virus WR
PARAMETER: Kd
Remember to quote the unit after the number.

Return value of Kd for input YRYSLSSDL , no commentary. 4 nM

Return value of Kd for input FTSSFYNYV , no commentary. 89 nM

---

Target: HLA-A*02:01
Test: IEDB peptide-MHC binding, purified MHC/competitive/radioactivity; filed as Kd, often an IC50 or EC50 that approximates it; bounds were set here for any values at or beyond the usual limits of such assays
Details: source organism: Dengue virus 4 Philippines/H241/1956
PARAMETER: Kd (nM)
Give the number; nM is assumed, so skip it.

Return value of Kd for input YQGKTVWFV , no commentary. 9.87

---

Molecular target: HLA-A*02:01
Test: IEDB peptide-MHC binding, purified MHC/competitive/fluorescence; filed as Kd, often an IC50 or EC50 that approximates it; bounds were set here for any values at or beyond the usual limits of such assays
Settings: source organism: Streptococcus pneumoniae TIGR4
PARAMETER: pKd
Lab note — pKd values are minus log10 of concentrations in M.

Return value of pKd for input YQVEGATRV , no commentary. 8.77

---

Target: HLA-A*02:02
Experiment: IEDB peptide-MHC binding, purified MHC/competitive/radioactivity; filed as Kd, often an IC50 or EC50 that approximates it; bounds were set here for any values at or beyond the usual limits of such assays
Details: source organism: Mammarenavirus tacaribeense
PARAMETER: pKd
Lab note — pKd values are minus log10 of concentrations in M.

Return value of pKd for input YNCKCCWFA , no commentary. 4.80

---

Molecular target: HLA-A*02:17
Experiment: IEDB peptide-MHC binding, purified MHC/competitive/radioactivity; filed as Kd, often an IC50 or EC50 that approximates it; bounds were set here for any values at or beyond the usual limits of such assays
Details: source organism: Dengue virus 2 Thailand/NGS-C/1944
PARAMETER: Kd
Remember to quote the unit after the number.

Report measured Kd on HLA-A*02:17; entry: MIIMLIPTV 0.634 nM

---

Target: HLA-A*11:01
Test: IEDB peptide-MHC binding, purified MHC/direct/fluorescence; filed as Kd, often an IC50 or EC50 that approximates it; bounds were set here for any values at or beyond the usual limits of such assays
Details: source organism: Cryptosporidium parvum
PARAMETER: Kd

Return value of Kd for input ISCQIYNAL , no commentary. ≥ 20 µM

Return value of Kd for input VPPTNSINK , no commentary. ≥ 20 µM

---

Biological target: HLA-A*02:01
Test: IEDB peptide-MHC binding, purified MHC/direct/fluorescence; filed as Kd, often an IC50 or EC50 that approximates it; bounds were set here for any values at or beyond the usual limits of such assays
Conditions: source organism: Ebola virus - Gabon (1994-1997)
PARAMETER: Kd

Return value of Kd for input QLSLKMLSL , no commentary. ≥ 20 µM
